Value source: ChEMBL document CHEMBL2150984

ASSAY_COMMENT: Cytotoxicity against MDCK cells assessed as minimum concentration required to cause microscopically detectable alteration measured on day 3 post infection by MTS assay
Type: cell-based, Canis lupus familiaris
TEST_PARAMETERS: dog
MEASURED_ATTRIBUTE: MCC at 3 days

[Q] What value of MCC at 3 days has been recorded for this entry: "COC(=O)[C@H]1NC(=O)[C@H]2NC(=O)[C@H](NC(=O)[C@@H]3NC(=O)[C@H]4NC(=O)[C@H](NC(=O)[C@H](n5cc6cc7ccccc7cc6c5Sc5ncccn5)c5ccc(O)c(c5)Oc5cc4cc(O)c5C)[C@H](O)c4ccc(cc4)Oc4cc3cc(c4O)Oc3ccc(cc3)[C@H]2O)c2ccc(O)c(c2)-c2c(O)cc(O)cc21"
[A] ≥ 0.8 µM

[Q] What value of MCC at 3 days has been recorded for this entry: "COC(=O)[C@H]1NC(=O)[C@H]2NC(=O)[C@H](NC(=O)[C@@H]3NC(=O)[C@H]4NC(=O)[C@H](NC(=O)[C@H](n5cc6ccccc6c5S[C@@H]5O[C@H](COC(C)=O)[C@@H](OC(C)=O)[C@H](OC(C)=O)[C@H]5OC(C)=O)c5ccc(O)c(c5)Oc5cc4cc(O)c5C)[C@H](O)c4ccc(cc4)Oc4cc3cc(c4O)Oc3ccc(cc3)[C@H]2O)c2ccc(O)c(c2)-c2c(O)cc(O)cc21"
[A] ≥ 4 µM

[Q] What value of MCC at 3 days has been recorded for this entry: CC(=O)N[C@H]1[C@H]([C@H](O)[C@H](O)CO)OC(C(=O)O)=C[C@@H]1NC(=N)N [ZANAMIVIR]
[A] > 100 µM
